Measured on: 229E FP peptide (229E)
Assay method text: peptide ELISA
Provide the reported EC50 of each item.
Value expressed in µg/mL; do not type the unit.

# input binder: fp.008 (antibody, V domains shown) VH: VQLVESGGGVVQPGRSLRLSCRASGFRFNNYAMHWVRQAPGKGLEWVAIISYEARNEKYAASVKGRFSISRDNAKNTLYLQMNSLRPEDTAIYYCARDVFLSDYDQSGYDVTRGGFDYWGQGTLVTVSS VL: EIVMTQSPATLSVSPGESATLSCRASQSVSSSLAWYQHKFGQAPRLLIYGASTRATGIPDRFSGSGSGMEFTLTISSLQSEDVAIYYCQQYGDWPLVTFGGGTKVEIK ; wanted: its EC50
0.019

Again, but for fp.005 (antibody, V domains shown) VH: VQLVESGGGVVQPGNSLRLSCAASGFRFNNYAMHWVRQAPGKGLEWVAIISYEARNEKYADSVKGRFSISRDNAKNTLYLQMNSLRADDTGVYYCARDLFLSDYDTSGYDRTRGGFDYWGQGALVTVSS VL: EIVMTQSPATLSVSPGERATLSCRASQSVSNGLAWYQHRFGQPPRLLIYGASTRATGIPTRFSGSGSGTEFTLTISSLQSEDFAVYYCQQYDDWPLITFGGGTKVEIK
0.0175

fp.004 (antibody, V domains shown) VH: VQLVESGGGVVQPGTSLRLSCVASGFTFSNYAMHWVRQAPGKGLEWVAIISFDTRNTASAASVKGRFNISRDNSKNSLYLQMNSLRPEDTGVYYCARDLFLSDYDSRGYDPITGGFDCWGQGTLVTVSS VL: EIVMTQSPAALSVSPGEGATLSCRASQSVGSRLAWYQQKLGRPPRLLIYGASTRATGIPARFSGSGSGTEFTLTISSLQSEDFAVYYCQQYNDWPLLTFGGGTKVKIK , same question.
0.0202

Would you mind doing fp.003 (antibody, V domains shown) VH: VQLVESGGGVVQPGTSLRLSCTASGFSFSNYAMHWVRQAPGKGLEWVAIISFDTRNKEFADSVKGRFSISRDNSKNSLNLQMNSLRPEDTGVYYCARDLFLSDYDSRGYEPSRGGFDYWGQGTLVTVSS VL: EIVMTQSPATLSVSPGERATLSCRASQSVSSSLAWYQQKLGQPPRLLIYGASTRATGIPARFSGSGSGTEFTLTISSLKSEDSAVYYCQQYNDWPLLSFGGGTKVEIK as well?
0.0201
